These entries and their values trace back to PubChem BioAssay.

TESTED SYSTEM: Nuclear receptor coactivator 1 (Homo sapiens)
EXPERIMENT: SRC1 coactivator transcriptional activity inhibitors, confirmation, cell-based, luminescence, quadruplicate (AID 588820)
TEST CONDITIONS: HEK293 GAL4-SRC1 luciferase reporter, at 3.6 µM, active compounds read high
Lab note: anything with inhibition at or over 20% counts as t; the rest go in f.

Here are 2 molecules together with their reported answers.
> print(dat)
                                   molecule  label.class
1  C#Cc1ccc(NC(=O)C2(C)CCN2C(=O)Cc2ccc(-c3ccccc3)cc2)cc1 (stereo not given)            f
2    NC(=O)c1sc2nc3c(c(-c4ccccc4)c2c1N)CCC3            t

Task: Please tell me: is the molecule "Cc1nn(C(C)(C)C)c(C)c1/C=N/OC(=O)Nc1ccc(Cl)cc1" at or over 20% in terms of inhibition?
Result: t

Task: Please check the record "COc1cc(/C=C/C(=O)Nc2ccc(OC)c(S(=O)(=O)N3CCOCC3)c2)ccc1OCC#N" and state if its inhibition is at or above 20%.
Result: f

Task: Could you verify whether the entry "COC(=O)c1cc(=O)n(Cc2ccco2)c(=Nc2ccc(F)c(Cl)c2)s1" shows inhibition of no less than 20%?
Result: f
